Record form. Attribute: % IGF. Fill in for each entry.
- Assay target: human IGF-1 receptor (human, UniProt P08069 31-1367)
- Assay summary: cell-based or functional assay
Bridges are numbered along the chain shown (N, C = ends). Roman numbers before positions name the chains, in order. Where no end group is shown, it is not given here.
Give the value in % but do not write % after it.

The reported % IGF of the binder IGF-1 A (H8 A9 N21): B (H5D10Y16L17 A22) DPI A-COOH (ligand, not fully specified (C-terminus); ends and bridges not checked) chain 1: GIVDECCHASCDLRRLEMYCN-OH chain 2: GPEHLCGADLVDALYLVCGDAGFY was 7.7

The reported % IGF of the binder IGF-1 A (H8 A9 N21): B(H5D10Y16L17) DPI A-COOH (ligand, disulfide I:6-I:11, I:20-II:18, I:7-II:6; ends not checked) chain 1: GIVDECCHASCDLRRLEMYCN-OH chain 2: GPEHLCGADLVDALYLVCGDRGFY-NH2 was 181

The reported % IGF of the binder IGF-1 A: B (D10Y16L17) DPI A-COOH (ligand, disulfide I:6-I:11, I:20-II:18, I:7-II:6; ends not checked) chain 1: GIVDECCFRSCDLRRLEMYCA-OH chain 2: GPETLCGADLVDALYLVCGDRGFY-NH2 was 112

The reported % IGF of the binder IGF-1 A: B (H5D10Y16L17) DPI (ligand, disulfide I:6-I:11, I:20-II:18, I:7-II:6; ends not checked) chain 1: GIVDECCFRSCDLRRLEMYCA-NH2 chain 2: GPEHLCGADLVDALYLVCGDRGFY-NH2 was 7.1
